- System: TK-10 renal
- Test description: NCI tumour cell line growth inhibition, 48 h
Observed property: TGI (µM)
Numbers only; they are read as µM.

Solved entries:
# Substance smiles, Observed property, Data value
rows = [
    ("Cc1cc2nc(C(Cl)Cl)nc(-c3cccs3)n2n1", "TGI", 5.92),
    ("COc1cc(/C=C/C(=O)c2cc(OC)c(OC)c(OC)c2)ccc1Oc1nc(NCCO)nc(N2CCOCC2)n1", "TGI", 8.93),
]

Prompt: Param item = Cc1ccc(NC(=O)c2ccc(CN3CCN(C)CC3)c(C(F)(F)F)c2)cc1Oc1ccc(-c2[nH]nc3ncnc(N)c23)cc1 ; retrieve measured TGI.
Response: 63.3

---

- Test system: SK-OV-3 ovarian
- Test description: NCI tumour cell line growth inhibition, 48 h
Observed property: GI50

Prompt: Report GI50 for Cc1ccc(NC(=O)c2ccc(CN3CCN(C)CC3)c(C(F)(F)F)c2)cc1Oc1ccc(-c2[nH]nc3ncnc(N)c23)cc1 please.
Response: 23500 nM

---

- Test system: SK-MEL-5 melanoma
- Test description: NCI tumour cell line growth inhibition, 48 h
Examples of molecules with documented GI50 follow.

# Substance smiles, Observed property, Data value
records = [
    ("Cc1cc2nc(C(Cl)Cl)nc(-c3cccs3)n2n1", "GI50", "9610 nM"),
    ("Cc1ccc(NC(=O)c2ccc(CN3CCN(C)CC3)c(C(F)(F)F)c2)cc1Oc1ccc(-c2[nH]nc3ncnc(N)c23)cc1", "GI50", "1670 nM"),
    ("Oc1ccc(CSc2nnc(-c3ccncc3)n2-c2ccccc2)c2cccnc12", "GI50", "761 nM"),
]

Now let's try a different one.
Prompt: Give the measured GI50 of O=C(Nc1ccc(F)cc1)c1cc(-c2ccc(F)cc2F)ccc1O .
Response: 1560 nM

---

- Test system: SF-295 CNS
- Test description: NCI tumour cell line growth inhibition, 48 h
compounds and their reported GI50

The following compounds have reported results that may help.
# Substance smiles, Data value
rows = [
    ("Cc1cc2nc(C(Cl)Cl)nc(-c3cccs3)n2n1", "1.27 µM"),
    ("Cc1ccc(NC(=O)c2ccc(CN3CCN(C)CC3)c(C(F)(F)F)c2)cc1Oc1ccc(-c2[nH]nc3ncnc(N)c23)cc1", "8.51 µM"),
    ("IP(CCCCCCCCCCSc1n(Cc2ccc3ccccc3c2)c(-c2ccccc2)c(-c2ccccc2)[n+]1Cc1ccc2ccccc2c1)(c1ccccc1)(c1ccccc1)c1ccccc1", "1.57 µM"),
    ("Oc1ccc(CSc2nnc(-c3ccncc3)n2-c2ccccc2)c2cccnc12", "1.14 µM"),
]

// next item, GI50 requested
Prompt: Entry O=C(Nc1ccc(F)cc1)c1cc(-c2ccc(F)cc2F)ccc1O has what GI50?
Response: 2.44 µM

---

- Tested on: HOP-62 NSCLC
- Test description: NCI tumour cell line growth inhibition, 48 h
Observed property: TGI (µM)
Note: unit µM is implicit; provide only the numeric part.

# Substance smiles, TGI, µM
records = [
    ("O=C(Nc1ccc(F)cc1)c1cc(-c2ccc(F)cc2F)ccc1O", 17.1),
    ("N#Cc1cnc2ccc(-c3cnc4[nH]ncc4c3)cc2c1N1CCc2cc(F)c(Cl)cc21", 1.1),
    ("Cc1ccc(NC(=O)c2ccc(CN3CCN(C)CC3)c(C(F)(F)F)c2)cc1Oc1ccc(-c2[nH]nc3ncnc(N)c23)cc1", 5.14),
]

// next item, TGI requested
Prompt: Any idea what its TGI is? The compound is Oc1ccc(CSc2nnc(-c3ccncc3)n2-c2ccccc2)c2cccnc12
Response: 16.3

Source of measurements: PubChem BioAssay (NCI)
